Biological target: BTK-1h (Homo sapiens)
Construct: The BTK kinase domain was diluted to 2 μM in the buffer, and 2 μM 1h was added; made in house
Sequence (Q06187 402-655): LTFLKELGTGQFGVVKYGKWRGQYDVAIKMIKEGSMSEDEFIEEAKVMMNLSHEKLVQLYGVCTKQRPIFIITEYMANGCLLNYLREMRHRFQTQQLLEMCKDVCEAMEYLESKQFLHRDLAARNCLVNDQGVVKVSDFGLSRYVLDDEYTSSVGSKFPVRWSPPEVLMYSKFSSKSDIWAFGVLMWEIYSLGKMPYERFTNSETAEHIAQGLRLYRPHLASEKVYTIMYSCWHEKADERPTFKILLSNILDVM
Experiment: High-throughput screening with 1h-labeled BTK
Format: binding
Settings: Dataset S2C; BTK-1h with inhibitor
Counter-ions that a name gives are not always drawn.
reportedProperty: FI (650)/FI (620)
Give a plain numeric answer without units written out.

compound | FI (650)/FI (620)
Cc1ccc(C(=O)Nc2ccc(CN3CCN(C)CC3)c(C(F)(F)F)c2)cc1C#Cc1cnc2[nH]ncc2c1 [PCM-0215209-001, GZD824 Dimesylate] | 1.6661
O=C(O)c1cc(O)c2c(c1)[C@@H]([C@H]1c3cc(C(=O)O)cc(O)c3C(=O)c3c(O[C@@H]4O[C@H](CO)[C@@H](O)[C@H](O)[C@H]4O)cccc31)c1cccc(O[C@@H]3O[C@H](CO)[C@@H](O)[C@H](O)[C@H]3O)c1C2=O [PCM-0086913-003, Sennoside B] | 1.82
O=C(Nc1c[nH]nc1-c1nc2ccc(CN3CCOCC3)cc2[nH]1)NC1CC1 | 1.798
CN(C)C/C=C/C(=O)Nc1ccc(C(=O)Nc2cccc(Nc3ncc(Cl)c(-c4c[nH]c5ccccc45)n3)c2)cc1 [PCM-0213464-002, THZ1 2HCl] | 2.341
O=C(c1ccc(Oc2ccccc2)cc1Cl)c1c[nH]c2ncnc(N[C@@H]3CC[C@@H](CO)OC3)c12 | 2.9215
Cc1cc(Nc2cc(N3CCN(C)CC3)nc(/C=C/c3ccccc3)n2)n[nH]1.O=C(O)C(O)C(O)C(=O)O [ENMD-2076 L-(+)-Tartaric acid] | 1.943
NCCOc1cc(C(=O)Nc2cc(OCCN)c3ccccc3n2)nc(C(=O)Nc2cc(OCCN)c3ccccc3n2)c1 [PCM-0215476-001, Pyridostatin Trifluoroacetate Salt] | 1.539

Pending compound:
Prompt: Name the recorded FI (650)/FI (620) for O=C(c1ccc(Nc2nccc(-c3cc4ccccc4s3)n2)cc1)N1CCC(N2CCCC2)CC1 .
Response: 1.715

----------
Biological target: BTK-1h (Homo sapiens)
Construct: The BTK kinase domain was diluted to 2 μM in the buffer, and 2 μM 1h was added; made in house
Experiment: High-throughput screening with 1h-labeled BTK
Assay type: binding
Settings: Dataset S2A; 200 μM compound, BTK-1h, 32 °C, 10 min
reportedProperty: FI (650)/FI (620)

Solved cases below.
compound | FI (650)/FI (620)
O=[N+]([O-])c1ccc(Sc2cccc[n+]2[O-])c2nonc12 [PCM-0215705-001, NSC228155] | 7.1
Cn1cc(C2=C(c3cccc(N)c3)C(=O)NC2=O)c2ccccc21 [PCM-0215795-001] | 1.701
CC1(C)C=Cc2c(ccc3c2OC[C@@H](c2ccc(O)cc2O)C3)O1 [PCM-0214974-001] | 1.13

Prompt: Any idea what FI (650)/FI (620) came out for Cc1cnc(C(=O)N[C@H]2CCCCC/C=C\[C@@H]3C[C@@]3(C(=O)NS(=O)(=O)C3CC3)NC(=O)[C@@H]3C[C@@H](Oc4nc5ccccc5c5ccccc45)CN3C2=O)cn1 [PCM-0216057-001] on BTK-1h (Homo sapiens)?
Response: 0.9612

Prompt: Any idea what FI (650)/FI (620) came out for CCOc1nc2cccc(C(=O)OC(C)OC(=O)OC3CCCCC3)c2n1Cc1ccc(-c2ccccc2-c2nn[nH]n2)cc1 (stereo not shown) [PCM-0090385-001] on BTK-1h (Homo sapiens)?
Response: 0.8568

Prompt: Any idea what FI (650)/FI (620) came out for CC(=O)Nc1nc(-c2cccc(NS(=O)(=O)c3cccc4c(N(C)C)cccc34)c2)cs1 [PCM-0215679-001] on BTK-1h (Homo sapiens)?
Response: 1.491

Prompt: Any idea what FI (650)/FI (620) came out for CC(C)(O)CC(=O)NCCn1ccc2ncnc(Nc3ccc(Oc4cccc(C(F)(F)F)c4)c(Cl)c3)c21 [PCM-0095364-002] on BTK-1h (Homo sapiens)?
Response: 0.8854
